Assay: Kinetic aqueous solubility by CAD
Assay type: physicochemical
Settings: kinetic from dmso stock; kinetic, CAD; read-out: Aqueous solubility
Answer criterion not met if solubility is under 40 µM, and criterion met if it is 40 µM or more.

> print(dat)
                                    compound       answer.label
 1  COc1ccc(NC(=O)NC2C(=O)Nc3ccccc3N(c3ccccc3)C2=O)cc1 (stereo not drawn) [Compound 2]      criterion met
 2  COc1cccc(N2C(=O)C(NC(=O)Nc3ccc(C)cc3)C(=O)Nc3ccccc32)c1 (stereo not drawn) [Compound 5]  criterion not met
 3  Cc1ccc(NC(=O)NC2C(=O)Nc3ccccc3N(C3CCOCC3)C2=O)cc1 (stereo not drawn) [Compound 8]      criterion met
 4  Cc1ccc(NC(=O)NC2C(=O)Nc3ccccc3N(c3ccccc3)C2=O)cc1 (stereo not drawn) [Compound 1]  criterion not met
 5  Cc1ccc(NC(=O)NC2CNc3ccccc3N(c3ccccc3)C2=O)cc1 (stereo not drawn) [Compound 11]  criterion not met
 6  COc1ccc(N2C(=O)C(NC(=O)Nc3ccc(C)cc3)C(=O)Nc3ccccc32)cc1 (stereo not drawn) [Compound 4]      criterion met
 7  Cc1ccc(NC(=O)NC2COc3ccccc3N(c3ccccc3)C2=O)cc1 (stereo not drawn) [Compound 13]  criterion not met
 8  Cc1ccc(NC(=O)NC2CN(c3ccccc3)c3ccccc3NC2=O)cc1 (stereo not drawn) [Compound 10]  criterion not met
 9  Cc1ccc(NC(=O)NC2C(=O)Nc3ccccc3N(C(C)C)C2=O)cc1 (stereo not drawn) [Compound 7]  criterion not met
10  COc1ccc(CN2C(=O)C(N)C(=O)N(c3ccc(OC)nc3)c3ccccc32)cc1 (stereo not drawn) [Compound 18]      criterion met

Exercise: Say whether COc1ccc(CN2C(=O)C(N)C(=O)N(c3ccccc3)c3ccccc32)cc1 (stereo not drawn) [Compound 15] shows solubility of 40 µM or more.
Solution: criterion met

Exercise: Say whether COc1ccc(CN2C(=O)C(N)C(=O)N(CC3CC(F)(F)C3)c3ccccc32)cc1 (stereo not drawn) [Compound 20] shows solubility of 40 µM or more.
Solution: criterion met

Exercise: Say whether COc1ccc(NC(=O)NC2C(=O)Nc3cccc(F)c3N(c3ccccc3)C2=O)cc1 (stereo not drawn) [Compound 9] shows solubility of 40 µM or more.
Solution: criterion not met

Exercise: Say whether COc1ccc(CN2C(=O)C(N)C(=O)N(C3CC3)c3ccccc32)cc1 (stereo not drawn) [Compound 19] shows solubility of 40 µM or more.
Solution: criterion met

Exercise: Say whether COc1ccc(CN2C(=O)C(N)C(=O)N(c3ccc(F)cc3)c3ccccc32)cc1 (stereo not drawn) [Compound 17] shows solubility of 40 µM or more.
Solution: criterion met

Value source: paper PMC12208134
